# target_of_assay: UniProt P00797
# Sequence (whole entry): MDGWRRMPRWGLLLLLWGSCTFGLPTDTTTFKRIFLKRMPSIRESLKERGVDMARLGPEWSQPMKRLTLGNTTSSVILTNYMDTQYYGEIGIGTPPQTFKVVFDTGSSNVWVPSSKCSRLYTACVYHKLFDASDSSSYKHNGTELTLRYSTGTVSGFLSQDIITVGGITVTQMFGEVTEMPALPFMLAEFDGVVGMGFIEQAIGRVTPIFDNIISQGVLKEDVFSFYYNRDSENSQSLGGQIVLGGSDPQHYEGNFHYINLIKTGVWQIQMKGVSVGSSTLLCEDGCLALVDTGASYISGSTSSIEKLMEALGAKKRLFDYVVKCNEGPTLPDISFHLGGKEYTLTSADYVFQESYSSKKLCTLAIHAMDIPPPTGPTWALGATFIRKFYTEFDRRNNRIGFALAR
# protocol_summary: Inhibitory potency against renin relative to H-Pro-His-Pro-Phe-His-Phe-Phe-Val-Tyr-D-Lys-OH peptide
quantity_name: Relative potency
Give the figure by itself; no unit, no explanation.

CC[C@@H](C)[C@H](NC(=O)/C=C/[C@H](CC(C)C)NC(=O)[C@H](Cc1c[nH]cn1)NC(=O)[C@H](Cc1ccccc1)NC(=O)[C@H]1CCCN1C(=O)[C@H](Cc1c[nH]cn1)NC(=O)[C@H]1CCCN1)C(=O)N[C@@H](Cc1c[nH]cn1)C(=O)N[C@H](CCCCN)C(=O)O : 1.6
CC[C@@H](C)[C@H](NC(=O)[C@@H](SC[C@H](CC(C)C)NC(=O)[C@H](Cc1c[nH]cn1)NC(=O)[C@H](Cc1ccccc1)NC(=O)[C@H]1CCCN1C(=O)[C@H](Cc1c[nH]cn1)NC(=O)[C@H]1CCCN1)C(C)C)C(=O)N[C@@H](Cc1c[nH]cn1)C(=O)N[C@H](CCCCN)C(=O)O : 1.6
CC[C@@H](C)[C@H](NC(=O)[C@H](Cc1ccccc1)NC(=O)[C@H](Cc1ccccc1)NC(=O)[C@H](Cc1c[nH]cn1)NC(=O)[C@H](Cc1ccccc1)NC(=O)[C@H]1CCCN1C(=O)[C@H](Cc1c[nH]cn1)NC(=O)[C@H]1CCCN1)C(=O)N[C@@H](Cc1c[nH]cn1)C(=O)N[C@H](CCCCN)C(=O)O : 0.6

Please find the next compound below.
State its Relative potency on UniProt P00797: CC[C@@H](C)[C@H](NC(=O)[C@H](C(C)C)[S+]([O-])C[C@H](CC(C)C)NC(=O)[C@H](Cc1c[nH]cn1)NC(=O)[C@H](Cc1ccccc1)NC(=O)[C@H]1CCCN1C(=O)[C@H](Cc1c[nH]cn1)NC(=O)[C@H]1CCCN1)C(=O)N[C@@H](Cc1c[nH]cn1)C(=O)N[C@H](CCCCN)C(=O)O (some centres undefined)
4

---

# target_of_assay: Renin (Homo sapiens) (UniProt P00797)
# protocol_summary: Inhibitory potency against renin relative to H-Pro-His-Pro-Phe-His-Phe-Phe-Val-Tyr-D-Lys-OH peptide
This section presents molecules with their documented Relative potency values.

CC(C)[C@H](NC(=O)[C@H](Cc1ccccc1)NC(=O)[C@H](Cc1ccccc1)NC(=O)[C@H](Cc1c[nH]cn1)NC(=O)[C@H](Cc1ccccc1)NC(=O)[C@H]1CCCN1C(=O)[C@H](Cc1c[nH]cn1)NC(=O)[C@H]1CCCN1)C(=O)N[C@@H](Cc1ccc(O)cc1)C(=O)N[C@H](CCCCN)C(=O)O : 1

// next item, Relative potency requested
Consider the molecule shown here: `CC[C@@H](C)[C@H](NC(=O)[C@@H](NC[C@H](CC(C)C)NC(=O)[C@H](Cc1c[nH]cn1)NC(=O)[C@H](Cc1ccccc1)NC(=O)[C@H]1CCCN1C(=O)[C@H](Cc1c[nH]cn1)NC(=O)[C@H]1CCCN1)C(C)C)C(=O)N[C@@H](Cc1c[nH]cn1)C(=O)N[C@H](CCCCN)C(=O)O` What is its recorded Relative potency?
200
